The measurements presented in this section are drawn from patent US20220033460A1.

# target-or-system: DRB1*07:01
# applied-conditions: modification not given
reported-property: pIC50
Numbers only, as −log10 of the molar value.

**Q:** Endpoint output: pIC50 of NFRVQPTESIVRFPN [… (position 317)] . Value?
**A:** 5.79
